Reference for the values: ChEMBL document CHEMBL1127727

Target: Retinoic acid receptor RXR-beta (Mus musculus, UniProt P28704)
Sequence (P28704 whole entry): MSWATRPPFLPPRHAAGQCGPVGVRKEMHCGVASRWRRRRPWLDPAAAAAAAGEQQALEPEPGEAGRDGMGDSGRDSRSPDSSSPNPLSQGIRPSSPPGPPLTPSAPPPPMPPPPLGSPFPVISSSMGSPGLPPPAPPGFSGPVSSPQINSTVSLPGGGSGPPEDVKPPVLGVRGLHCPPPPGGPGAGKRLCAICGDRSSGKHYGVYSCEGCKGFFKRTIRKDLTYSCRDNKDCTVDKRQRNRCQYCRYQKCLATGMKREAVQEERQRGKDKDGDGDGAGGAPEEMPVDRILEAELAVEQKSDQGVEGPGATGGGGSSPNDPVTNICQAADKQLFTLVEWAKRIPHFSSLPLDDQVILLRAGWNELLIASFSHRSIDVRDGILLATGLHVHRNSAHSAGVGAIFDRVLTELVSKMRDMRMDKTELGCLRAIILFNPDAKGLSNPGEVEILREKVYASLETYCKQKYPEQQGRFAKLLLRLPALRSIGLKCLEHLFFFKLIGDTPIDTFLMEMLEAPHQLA
Experiment: Effective concentration against retinoid receptor isoform (RXR beta) expressed in CV-1 cells
pEC50: −log10 of the molar value.
measure: pEC50

C=C(c1ccc(C(=O)O)cc1)c1ccc2c(c1)C(C)(C)CCC2(C)C :: 6.31

I. CC(C)c1cc2c(cc1C(=O)c1ccc(C(=O)O)cc1)C(C)(C)CCC2(C)C
II. COc1cc2c(cc1C(=O)c1ccc(C(=O)O)cc1)C(C)(C)CCC2(C)C
Asked: Would you mind telling me which has the lower recorded pEC50 between I and II ? Please reply using the label of the selected record.
Given back: II
(II: 5.66, I: 6.50)

====

biological target: Retinoic acid receptor RXR-beta (Mus musculus, UniProt P28704); test: Inhibition of [3H]9-cis-RA binding to baculovirus expressed retinoid receptor RXR beta
measure: Kd (nM)

CCc1cc2c(cc1C(=O)c1ccc(C(=O)O)cc1)C(C)(C)CCC2(C)C :: 232

P. CC1(C)CCC(C)(C)c2cc(C(=O)c3ccc(C(=O)O)cc3)c(Cl)cc21
Q. CCCc1cc2c(cc1C(=O)c1ccc(C(=O)O)cc1)C(C)(C)CCC2(C)C
Asked: Would you mind telling me which has the lower recorded Kd between P and Q ? Please reply using the label of the selected record.
Given back: P

====

Target: Retinoic acid receptor RXR-gamma (Mus musculus, UniProt P28705)
Sequence (P28705 whole entry): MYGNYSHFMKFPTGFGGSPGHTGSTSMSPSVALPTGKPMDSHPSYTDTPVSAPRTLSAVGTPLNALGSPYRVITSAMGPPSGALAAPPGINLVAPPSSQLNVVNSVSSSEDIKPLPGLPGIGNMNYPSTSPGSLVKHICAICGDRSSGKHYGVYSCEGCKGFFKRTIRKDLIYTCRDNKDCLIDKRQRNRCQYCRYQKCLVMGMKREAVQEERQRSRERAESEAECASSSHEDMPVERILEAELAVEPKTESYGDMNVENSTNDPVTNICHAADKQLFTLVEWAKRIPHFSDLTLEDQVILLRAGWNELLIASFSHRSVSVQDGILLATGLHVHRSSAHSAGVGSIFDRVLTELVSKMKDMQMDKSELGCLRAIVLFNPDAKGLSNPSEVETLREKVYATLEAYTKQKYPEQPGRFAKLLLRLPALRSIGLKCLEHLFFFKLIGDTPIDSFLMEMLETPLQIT
Test: Effective concentration against retinoid receptor isoform (RXR gamma) expressed in CV-1 cells
pEC50: −log10 of the molar value.
Reported pEC50 values for the following compounds.

Known results for compounds:
C=C(c1ccc(C(=O)O)cc1)c1cc2c(cc1CCC)C(C)(C)CCC2(C)C :: < 5.00
CC1(C)CCC(C)(C)c2cc(C(=O)c3ccc(C(=O)O)cc3)c(O)cc21 :: < 5.00

Asked: GET /values?readout=pEC50&item= C=C(c1ccc(C(=O)O)cc1)c1cc2c(cc1O)C(C)(C)CCC2(C)C
Given back: 6.25

Asked: GET /values?readout=pEC50&item= CCCc1cc2c(cc1C(=O)c1ccc(C(=O)O)cc1)C(C)(C)CCC2(C)C
Given back: < 5.00
